Below, each entry is listed alongside its reported activity at 2 µg/mL.
test system: P. falciparum 3D7 parasites; assay: P. falciparum growth inhibition assay, 2-cycle (120 h treatment), delayed-death screen and dose-response; type: cell-based, Plasmodium falciparum; conditions: Plasmodium falciparum, 3D7; P. falciparum, 120 h, screen at 2 μg/mL, replicate 2; read-out: Pf_120h_%Growth_Rep2

- Molecule: "C=C(NC(=O)C(=C)NC(=O)c1csc(C2=N[C@@H]3c4csc(n4)[C@H]4NC(=O)c5csc(n5)[C@H]([C@](C)(O)[C@@H](C)O)NC(=O)[C@H]5CSC(=N5)/C(=C/C)NC(=O)[C@H]([C@@H](C)O)NC(=O)c5csc(n5)[C@]3(CC2)NC(=O)[C@H](C)NC(=O)C(=C)NC(=O)[C@H](C)NC(=O)[C@H]([C@@H](C)CC)N[C@@H]2C=Cc3c([C@H](C)O)cc(nc3[C@H]2O)C(=O)O[C@@H]4C)n1)C(N)=O [thiostrepton, reference compound]"
  Measured target: "P. falciparum 3D7 parasites"
  activity at 2 µg/mL, %: 35.5
- Molecule: "CC[C@H]1CC2CN3CCc4c([nH]c5ccc(OC)cc45)[C@](C(=O)OC)(C2)[C@H]13 (stereo in doubt) [Voacangine]"
  Measured target: "P. falciparum 3D7 parasites"
  activity at 2 µg/mL, %: 91
- Molecule: "COc1cc(-c2ccc(O)cc2)c(OC)c(O)c1-c1ccc(O)cc1 [Terphenyllin]"
  Measured target: "P. falciparum 3D7 parasites"
  activity at 2 µg/mL, %: 102

---

tested on: T. gondii RH strain (RH-Tub-eYFP) tachyzoites; test: microbe, parasite or virus in culture; assay type: cell-based, Toxoplasma gondii; conditions: T. gondii, 72 h, parasite screen at 2 μg/mL, % growth, replicate 1

- Compound: "COc1ccc2[nH]c3c(C)c4ccncc4c(C)c3c2c1 [BIA-M1952]"
  Measured target: "T. gondii RH strain (RH-Tub-eYFP) tachyzoites"
  Tg_72h_%Growth_Rep1, %: 3.28
- Compound: "CCCCCCCC(=O)N[C@H]1CCOC1=O [BIA-O1496]"
  Measured target: "T. gondii RH strain (RH-Tub-eYFP) tachyzoites"
  Tg_72h_%Growth_Rep1, %: 127.37
- Compound: "COc1oc(C2C/C(=C/C(C)=C/C(C)=C/C(C)=C/c3ccc([N+](=O)[O-])cc3)CO2)c(C)c(=O)c1C (centres unmarked) [BIA-N1058]"
  Measured target: "T. gondii RH strain (RH-Tub-eYFP) tachyzoites"
  Tg_72h_%Growth_Rep1, %: 44.53
- Compound: "Oc1cc(O)cc(O)c1 [BIA-P1379]"
  Measured target: "T. gondii RH strain (RH-Tub-eYFP) tachyzoites"
  Tg_72h_%Growth_Rep1, %: 123.57
- Compound: "Cc1cccc(O)c1C(=O)O [BIA-M1655]"
  Measured target: "T. gondii RH strain (RH-Tub-eYFP) tachyzoites"
  Tg_72h_%Growth_Rep1, %: 91.77

---

tested on: P. falciparum 3D7 parasites; experiment: P. falciparum growth inhibition assay, 1-cycle (72 h treatment), SYBR DNA staining (library screen at 2 μg/mL and dose-response); assay type: cell-based, Plasmodium falciparum; conditions: P. falciparum 3D7, 72 h, library screen at 2 μg/mL, % growth, replicate 1
Item-by-item account of Pf_72h_%Growth_Rep1

- Molecule: "COC1CC(OC2C(C)OC(OC3C(C)=CCC4CC(CC5(CCC(C)C(C(C)C)O5)O4)OC(=O)C4C=C(C)C(O)C5OCC(=CC=CC3C)C45O)CC2OC)OC(C)C1O (stereo not drawn)"
  Pf_72h_%Growth_Rep1 [%]: 83.64
- Molecule: "COC1=C(OC)C(=O)[C@@H](C)[C@H](C)C1=O"
  Pf_72h_%Growth_Rep1 [%]: 4.48
- Molecule: "CCC(C(=O)C(C)C(O)C(C)CCc1ccc(C)c(O)c1C(=O)O)C1OC(CC)(C2CCC(O)(CC)C(C)O2)CC1C (stereo not drawn)"
  Pf_72h_%Growth_Rep1 [%]: 6.55
- Molecule: "CCC(C)C1OC2(CCC1C)CC1CC(CC=C(C)C(OC3CC(OC)C(OC4CC(OC)C(O)C(C)O4)C(C)O3)C(C)C=CC=C3COC4C(O)C(C)C=C(C(=O)O1)C34O)O2 (stereo not drawn)"
  Pf_72h_%Growth_Rep1 [%]: 5.59
- Molecule: "CCCCCC(=O)NC1CCOC1=O (stereo not drawn)"
  Pf_72h_%Growth_Rep1 [%]: 85.11
- Molecule: "COc1cc(O)c2c(=O)oc3c(O)c(OC)cc(C)c3c2c1"
  Pf_72h_%Growth_Rep1 [%]: 89.69
